Source of measurements: PubChem BioAssay (NCI)

# Test system: SK-OV-3 ovarian
# protocol.text: NCI tumour cell line growth inhibition, 48 h
For each record, write down the corresponding TGI.

# example entries with known answers
INSERT INTO measurements (compound, study_target, measured) VALUES
  ('COc1cccc(N2C(=O)CSC2c2cccc(Oc3ccccc3)c2)c1 (stereo unspecified)', 'SK-OV-3 ovarian', '> 100 µM'),
  ('CC(=O)c1c(O)c(C)c(O)c(Cc2c(O)c3c(c(C(=O)/C=C/c4ccccc4)c2O)OC(C)(C)C=C3)c1O', 'SK-OV-3 ovarian', '15.1 µM'),
  ('O=C(O)CN(CC(=O)O)C1CCCCC1N1CC(=O)OC(=O)C1 (stereo unspecified)', 'SK-OV-3 ovarian', '> 100 µM');

Could you report TGI for every entry in the following list?
1. O=C(/C=C(/C=C/c1ccc2[nH]ccc2c1)OB(F)F)/C=C/c1ccc2[nH]ccc2c1
2. CN(C(=O)/C=C/c1ccccc1)C1C2CN3CCC(O2)C13 (stereo unspecified)
3. Cc1ccc(Nc2nc3[nH]ccc3c(=O)[nH]2)cc1
4. COC(=O)c1sc(C(=O)OC)c2c1CS(=O)C2
5. COc1ccc2c(c1)C(=O)/C(=C/c1cccc(OCC(=O)c3ccccc3)c1)CC2
6. O=C1/C(=C/c2ccc([N+](=O)[O-])cc2)CN(C(=O)CCN2CCC(=NO)CC2)C/C1=C\c1ccc([N+](=O)[O-])cc1
7. Fc1ccc(C(OCCN2CCN(CCCc3ccccc3)CC2)c2ccc(F)cc2)cc1
8. COc1ccc([C@H]2[C@H]3COC(=O)[C@H]3C(C#N)=C3Sc4ccccc4N32)cc1

["> 100 µM", "> 100 µM", "> 100 µM", "> 100 µM", "> 100 µM", "17.4 µM", "18.9 µM", "> 100 µM"]

* * *

# Tested on: SK-MEL-2 melanoma
# protocol.text: NCI tumour cell line growth inhibition, 48 h; in the data active means GI50 below about 0.43 µM; inactive means the rest
Can you answer with just one of these options? 1 for active, 0 for inactive

Answered examples (5):
INSERT INTO assay_data (compound, class) VALUES
  ('CC1CC(C)CC(C)C(O)/C(C#N)=C/C=C/CC(C2CCCC2C(=O)O)OC(=O)CC(O)C(C)C1 (stereo unspecified)', 1),
  ('COc1ccc(-c2noc(C(=O)O)c2-c2cc(OC)c(OC)c(OC)c2)cc1', 0),
  ('N#CC(C#N)=C/C=C(\Cl)c1ccc(Cl)cc1', 0),
  ('CC[O-].CC[O-].O=C([CH-]C(=O)c1ccccc1)CCCCCCCCC(=O)[CH-]C(=O)c1ccccc1.[Ti+4]', 0),
  ('CCCN1C(=O)NC(=O)C(CC)(N2C(=O)c3c(F)c(F)c(F)c(F)c3C2=O)C1=O (stereo unspecified)', 0);

Would you kindly look at the next entry?
Please let me know the test result on file for O=C(Nc1cccc(Cl)c1)Nn1cnnc1 .
0

* * *

# Tested on: NCI-H460 lung
Respond with a class label; see True = active, False = inactive

Returns: the outcome recorded for CC1=C([Se]CC(OC(=O)CC[Se]c2ccccc2)C(=O)NC(C)(C)C)C(=O)c2ccccc2C1=O (stereo not given) in this assay.
True

What call does the record list for CC(=O)c1c(C(F)(F)F)n([O-])c2ccccc2[n+]1=O ?
False

Any idea what this test logged for COc1ccc(-c2noc(C(=O)O)c2-c2cc(OC)c(OC)c(OC)c2)cc1 ?
False

Kindly provide the recorded test outcome for the following molecule: COc1cccc(-c2nc3cc(NC(=O)c4ccc(Cl)c(C#N)c4)ccc3o2)c1
False

I would be grateful if you could indicate the recorded call for COc1ccc2c(c1)C(=O)/C(=C/c1cccc(OCC(=O)c3ccccc3)c1)CC2 .
False

* * *

For each of the compounds below, state its TGI.
# System: SR leukemia
# protocol.text: NCI tumour cell line growth inhibition, 48 h
One number for each entry, in µM.

INSERT INTO assay_data (compound, quantity_name, measured) VALUES
  ('CC12CCC(CC(=O)/C1=C(/Br)I)C2(C)C (configuration not stated)', 'TGI', 39),
  ('CC(=O)Nc1ccc2c(C)c3c(nc2n1)[nH]c1ccccc13', 'TGI', 64.9),
  ('O=C(c1ccc2ccccc2c1)c1c(C(F)(F)F)n([O-])c2ccc(C(F)(F)F)cc2[n+]1=O', 'TGI', 0.478),
  ('CCOC(=O)c1c(C)n(Cc2ccc(Cl)cc2Cl)c2c1cc(O)c1[nH]c3c(c12)CCCC3', 'TGI', 0.379),
  ('C=C1CCC2C3(C)COC(C)(C)OC3CCC2(C)C1C/C=C1/C(=O)OCC1OC(C)=O (configuration not stated)', 'TGI', 9.03),
  ('CC(C)/C(Cl)=N/OC(=O)Nc1ccc(Br)cc1', 'TGI', 4.5),
  ('COc1cccc(N2C(=O)CSC2c2cccc(Oc3ccccc3)c2)c1 (configuration not stated)', 'TGI', 17.6),
  ('O=[N+]([O-])c1ccccc1N=Nc1c(O)[nH]c2cccc(C(F)(F)F)c12', 'TGI', 15.7);

For every record below, what is its TGI?
1. C/C(=N/O)c1cccc(Nc2cc(-n3nnc4ccccc43)nc3ccccc23)c1
2. c1cc[c]([Sn][c]2ccccc2)cc1
3. COc1cc2c(c3c1c(=O)c1ccccc1n3C)C=CC1(CCCC1)O2
4. N#C[Se]Cc1cc(-c2ccccc2)n(-c2ccc(S(N)(=O)=O)cc2)n1

1. 35.2
2. 45.3
3. 52.8
4. 6.13

* * *

# System: NCI/ADR-RES ovarian
# protocol.text: NCI tumour cell line growth inhibition, 48 h
What TGI was measured for each of the following?

Please look at the items below and tell me TGI for each one, in order.
1. Cc1ccc(Nc2nc3[nH]ccc3c(=O)[nH]2)cc1
2. C=CCOC(=O)N1c2ccc(O[Si](C)(C)C(C)(C)C)cc2[C@@]23O[C@@]24[C@@H]1C#C/C=C\C#C[C@]3(O)C(OC)(OC)C[C@@H]4C
3. N=C1C(O)C2(I)c3ccccc3N3C(=N)C(O)C4c5ccccc5N1C4C32 (configuration not stated)
4. COc1cc2c(c(O)c1O)C(=O)C1CCC(=O)N1C2c1cccc2ccccc12 (configuration not stated)
5. c1ccc(NN(Cc2cnccn2)c2ccccc2)cc1
6. COc1ccc2c(c1)C(=O)CC1c3cnccc3C(=O)N21 (configuration not stated)
7. O=[N+]([O-])c1ccccc1OCCOc1ccccc1[N+](=O)[O-]
8. Oc1cc(Cc2ccccc2)c(Cc2ccccc2)cc1O

> 100 µM
> 100 µM
> 100 µM
> 50 µM
> 100 µM
> 100 µM
> 100 µM
> 10 µM

Items follow; give TGI for each.
1. CC1CC(C)CC(C)C(O)/C(C#N)=C/C=C/CC(C2CCCC2C(=O)O)OC(=O)CC(O)C(C)C1 (configuration not stated)
2. CCO/C(=N/S(=O)(=O)C(F)(F)F)N(C(C)C)C(C)C
3. COc1ccc(N2C(=O)C3c4[nH]c5ccc(OCc6ccccc6)cc5c4C4CCC(c5ccccc5)CC4C3C2=O)cc1 (configuration not stated)
4. CCOc1ccccc1CCN=C1NC(=O)/C(=C/c2ccc3ncccc3c2)S1
5. Cn1c(=O)c2c(nc3n(CC(O)CCl)c(=O)ccn23)n(C)c1=O (configuration not stated)
6. COc1cc(/C=C/C(=O)/C=C/c2cc(OC)c3c(c2)OCO3)cc2c1OCO2

["0.265 µM", "> 100 µM", "> 100 µM", "> 22.7 µM", "> 100 µM", "> 100 µM"]

Quick request: TGI for each listed item, please.
1. CC(N=NNc1ccc(-c2nc3ccccc3[nH]2)cc1)C(=O)O (configuration not stated)
2. COc1cc(C2c3c(ccc4ccccc34)C(=O)C3CCC(=O)N32)cc(OC)c1OC (configuration not stated)
3. CN1CCC(CNc2cc(C3(C(=O)Nc4cc(C(=O)Nc5ccc(Cl)c(C(F)(F)F)c5)ccc4F)CC3)ncn2)CC1
4. C[C@@]1(O)C2CC3CC1(c1ccccc1)CC(/C3=N/O)/C2=N\O (some centres not stated)
5. O=C(O)CN(CC(=O)O)C1CCCCC1N1CC(=O)OC(=O)C1 (configuration not stated)

["90.6 µM", "> 50 µM", "36.6 µM", "> 100 µM", "> 100 µM"]

State the recorded TGI for every item in the following list.
1. O=C(Nc1ccc(N2C(=O)CSC2c2ccccc2O)cc1)c1ccc(N2C(=O)CSC2c2ccccc2O)cc1 (configuration not stated)
2. O=c1[nH]c(Nc2ccccc2)nc2c1ncn2CC(O)CSCCO (configuration not stated)
3. CCOC(=O)c1c(C)n(Cc2ccc(Cl)cc2Cl)c2c1cc(O)c1[nH]c3c(c12)CCCC3
4. COc1cccc(N2C(=O)CSC2c2cccc(Oc3ccccc3)c2)c1 (configuration not stated)
5. CC(C)=CCN1c2ccccc2NC(=O)CC1C (configuration not stated)
6. CN(C)CC(O)c1ccc(Cl)c2ccccc12 (configuration not stated)
7. O=S1(=O)c2ccccc2Oc2ccc(C(/C=N/O)=N/O)cc21

["> 100 µM", "> 100 µM", "43.4 µM", "40.4 µM", "> 100 µM", "> 100 µM", "53.9 µM"]

Provide TGI values for the following items, in order.
1. Cn1ncc(-c2ccc3c(=O)[nH]nc(CN)c3c2)c1-c1c(F)c(Cl)cc(OC2CC2)c1C#N
2. CCOC(=O)Oc1c(OC)cc(C(=O)c2ccc(OC)c(O)c2OC)cc1OC
3. CC(=O)c1c(O)c(C)c(O)c(Cc2c(O)c3c(c(C(=O)/C=C/c4ccccc4)c2O)OC(C)(C)C=C3)c1O
4. COc1cc(/C=C2\C(=O)N(c3cccc([N+](=O)[O-])c3)C(c3ccccc3)S2(=O)=O)cc(OC)c1OC (configuration not stated)
5. O=C(Oc1cccnc1)c1cccnc1Nc1ccnc(C(F)(F)F)c1
6. Nc1n(CC(=O)c2ccccc2)nc2sc(-c3ccccc3)n[n+]12

1. > 100 µM
2. 6.97 µM
3. 15.8 µM
4. > 100 µM
5. > 100 µM
6. > 100 µM
